Recorded pIC50 by entry
- Test Name: DRUGMATRIX: GABAA, Flunitrazepam, Central radioligand binding (ligand: [3H] Flunitrazepam)
- Format: cell membranes, Rattus norvegicus, Wistar, Brain, Membrane
- Experimental Context: Not Active = under 50% inhibition at 10 µM; read-out: IC50
Recall that pIC50 is obtained by taking minus log10 of the concentration measured in molar.

CCOC(=O)c1ncn2c1CN(C)C(=O)c1cc(F)ccc1-2
8.41
CNC1=Nc2ccc(Cl)cc2C(c2ccccc2)=[N+]([O-])C1 [CHLORDIAZEPOXIDE]
5.84
CN1C(=O)CN=C(c2ccccc2)c2cc([N+](=O)[O-])ccc21
6.98

Now for the compound whose pIC50 we want.
According to the records, this compound `CCN(C(C)=O)c1cccc(-c2ccnc3c(C#N)cnn23)c1` displays pIC50 of 6.39
